List of pIC50 values.
- Target under test: T1, human LGR7 (human, UniProt Q9HBX9 1-757)
- T1 construct: whole, on cells
- T1 sequence (looked up): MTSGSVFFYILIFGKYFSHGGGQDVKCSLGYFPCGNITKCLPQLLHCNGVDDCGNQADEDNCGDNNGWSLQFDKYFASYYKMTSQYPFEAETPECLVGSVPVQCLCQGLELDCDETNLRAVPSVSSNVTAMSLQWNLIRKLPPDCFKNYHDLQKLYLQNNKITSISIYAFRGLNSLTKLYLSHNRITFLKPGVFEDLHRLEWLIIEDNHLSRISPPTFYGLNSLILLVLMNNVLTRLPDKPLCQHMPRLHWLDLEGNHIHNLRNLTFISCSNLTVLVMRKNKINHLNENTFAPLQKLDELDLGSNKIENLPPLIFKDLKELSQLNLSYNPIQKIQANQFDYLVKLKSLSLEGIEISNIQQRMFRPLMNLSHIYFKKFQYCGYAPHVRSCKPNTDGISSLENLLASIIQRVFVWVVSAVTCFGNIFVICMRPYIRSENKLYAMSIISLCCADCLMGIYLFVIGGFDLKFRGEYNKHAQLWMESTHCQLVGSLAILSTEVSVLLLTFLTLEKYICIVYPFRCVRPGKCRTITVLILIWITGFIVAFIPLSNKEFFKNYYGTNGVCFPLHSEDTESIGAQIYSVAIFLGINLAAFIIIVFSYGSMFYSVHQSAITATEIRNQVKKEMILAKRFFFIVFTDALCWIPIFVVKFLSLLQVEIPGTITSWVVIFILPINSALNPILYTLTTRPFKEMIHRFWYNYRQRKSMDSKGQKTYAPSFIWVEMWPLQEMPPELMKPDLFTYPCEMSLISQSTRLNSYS
- Assay procedure: competition with 100 pM [125I]-relaxin-3, live COS-7 cells with human LGR7
Ends that are not written are not given here.
Recall that pIC50 is obtained by taking minus log10 of the concentration measured in molar.

>  <Binder>
Relaxin-3/Relaxin-1 (R3/R1) chimeric polypeptide (ligand, human, disulfide (positions not given here), domain: A-chain; Two chains joined by disulfide bonds; Made in COS-7 cells with furin, FLAG tag removed with enterokinase) chain 1: RAAPYGVRLCGREFIRAVIFTCGGSRW chain 2: RPYVALFEKCCLIGCTKRSLAKYC

>  <Readout>
pIC50

>  <Numeric readout>
8.29

$$$$
>  <Binder>
Relaxin-3/INSL6 (R3/I6) chimeric polypeptide (ligand, human, disulfide (positions not given here), domain: A-chain; Two chains joined by disulfide bonds; FLAG tag removed) chain 1: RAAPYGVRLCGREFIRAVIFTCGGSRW chain 2: GYSEKCCLTGCTKEELSIAC

>  <Readout>
pIC50

>  <Numeric readout>
7.89

$$$$
>  <Binder>
Relaxin-3/Relaxin-2 (R3/R2) chimeric polypeptide (ligand, human, disulfide (positions not given here); also: two chains joined by disulfide bonds, pairing not given here, domain: A-chain; Two chains joined by disulfide bonds; FLAG tag removed) chain 1: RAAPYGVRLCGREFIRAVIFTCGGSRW chain 2: QLYSALANKCCHVGCTKRSLARFC

>  <Readout>
pIC50

>  <Numeric readout>
8.82

$$$$
>  <Binder>
Relaxin-3/INSL3 (R3/I3) chimeric polypeptide (ligand, human, disulfide (positions not given here), domain: A-chain; Two chains joined by disulfide bonds; FLAG tag removed) chain 1: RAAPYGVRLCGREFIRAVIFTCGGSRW chain 2: NPARYCCLSGCTQQDLLTLC

>  <Readout>
pIC50

>  <Numeric readout>
8.64

$$$$

Now look at this one.
Recorded result, Relaxin-3/INSL5 (R3/I5) chimeric polypeptide (ligand, disulfide (positions not given here); also: two chains joined by disulfide bonds, places not given here, Two chains joined by disulfide bonds; FLAG tag removed with enterokinase; also called R3/I5 chimera; I5/R3) chain 1: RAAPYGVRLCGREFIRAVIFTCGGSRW chain 2: DLQTLCCTDGCSMTDLSALC , pIC50: 6.14

The reported measurements were obtained from patent EP1789452B1.
